Value source: the supplement of paper PMC10307832

A collection of compounds and their measured relative viability
Test system: PC-14
method: relative viability (nuclei count vs DMSO), 5 days (fraction); higher = more cells survive
reportedConditions: first compound 20 µM

>>> valuereported("COCC1(CO)C(=O)C2CCN1CC2 (stereo not drawn) [PRIMA-1MET] + CCNC(=O)c1noc(-c2cc(C(C)C)c(O)cc2O)c1-c1ccc(CN2CCOCC2)cc1 [Luminespib] (partner 0.01 µM)")
0.129

Exercise: For COCC1(CO)C(=O)C2CCN1CC2 (stereo not drawn) [PRIMA-1MET] + Nc1ncn([C@H]2C[C@H](O)[C@@H](CO)O2)c(=O)n1 [Decitabine] (partner 2 µM) , write its relative viability.
Solution: 0.0433

Exercise: For COCC1(CO)C(=O)C2CCN1CC2 (stereo not drawn) [PRIMA-1MET] + CS(=O)(=O)CCNCc1ccc(-c2ccc3ncnc(Nc4ccc(OCc5cccc(F)c5)c(Cl)c4)c3c2)o1 [Lapatinib] (partner 2 µM) , write its relative viability.
Solution: 0.358
